- Method notes: yeast display, Sf9 membrane polyspecificity reagent, FACS + sequencing; frameworks hold sequencing errors
Measurement type: polyreactivity (PSR sort gate)

Worked cases, answers included:
INSERT INTO measurements (monomer_sequence, experimental_value) VALUES
  ('QVQLVESGGGLVQAGGSLRLSCAASGSTFDRYAMGWYRQAPGKERELVAAITRGGSTYYADSVKGRFTISRDNAKNTVYLQMNSLKPEDTAVYYCAAAQWWFRVRGARYYYWGQGTQVTVSS', 'high polyreactivity'),
  ('QVQLVESGGGLVQAGGSLRLSCAASGNILTTYAMGWYRQAPGKERELVAAIRWSDGSTYYADSVKGRFTISRDNAKNTVYLQMNSLKPEDTAVYYCAADYHYPTWQGGYHYGYWGQGTQVTVSS', 'high polyreactivity'),
  ('QVQLVESGGGLVQAGGSLRLSCAASGRTSFWNAMGWYRQAPGKERELVAAISASVGRTYYADSVKGRFTISRDNAKNTVYLQMNSLKPEDTAVYYCAKVYHAGTGYPSLGLDYWGQGTQVTVSS', 'low polyreactivity'),
  ('QVQLVESGGGLVQAGGSLRLSCAASGSTFSFNDMGWYRQAPGKERELVADISWSGDTTYADSVKGRFTISRDNAKKTVYLQMNSLKPEDTGVYYCDADRHRYQGYTYDYWGQGTQVTVSS', 'high polyreactivity'),
  ('QVQLVESGGGLVQAGGRLRLSCAASGSNFDIYALGWYRQAPGKERELVAAIRGRGGSTYYADSVKGRFTISRDNAKNTVYLQMNSLKPEDTAVYYCAARNSYGNWRYYYWGQGTQVTVSS', 'high polyreactivity');

Report polyreactivity (PSR sort gate) for every entry below.
1. QVQLVESGGGLVQAGGSLRLSCAASGSTFYYYAMGWYRQAPGKERELVAAINSSGGNTYYADSVKGRFTISRDNAKNTVYLQMNSLKPEDTAVYYCATGQIAYSSYGPFDYWGQGTQVTVSS
2. QVQLVESGGGLVQAGGSLRLICAASGSIFISYAMGWYRQAPGKERELVAAISSGGSTNYADSVKGRFTISRDNAKNTVYLQMNSLKPEDTAVYYCAADGWLWSFTGDGWWFDYWGQGTQVTVSS
3. QVQLVESGGGLVQAGGSLRLSCAASGSIFRVYMGWYRQAPGKERALVATIRWSSGSTYYADSVKGRFTISRDNAKNTVYLQMNSLKPEDTAVYYCAVKGPYYDDYDYWGQGTQGTVSS
4. QVQLVESGGGLVQAGGSLRLSCAASGFTFVRYVMGWSRQAPGKERELVAAISRSGGSTHYADSVKGRFTISRDNAKNTVYLQMNSLKPEDTAVYYCAAASPRWPGQGDYWGQGTQVTVSS
5. QVQLVESVGGLVQAGGSLRLSCAASGRTFAPNFMGWYRQAPGKERELVAAITYSSASTYYADSVKGRFTISRDNAKNTVYLQMNSLKPEDTAVYYCAARDRYYFGGMYYWGQGTQVTVSS
6. QVQLVESGGGLVQAGGSLRLSCAASGRTFVRNAMGWYRQAPGKERELVAGIRRGGTTNYADSVKGRFTISRDNAKNTVYLQMNSLKPEDTAVYYCNALYRYGWLYAPKYNSWGQGTQVTVSS
7. QDQLVESGGGLVQAGVSLRISCAASGYIFGFYARGWYRQAPGIERELVAAISKSGGNTYYADSVKGRFTISRDNANNTVSLQMNSLKPEDTAVYYCAADSYRYKYNYWGQGTQVTGSS
8. QVQLVESGRGLVQAGGSLRLSCAASGIIFSSYAMGWYRQAPGKERELVAAISYSGGSTYYADSVKGLFSISRDNAKNTVYLEMNCLIPEDTAVYYCAAQGYSPGGYDYWGQGTQVTVSW

Out:
1: low polyreactivity; 2: low polyreactivity; 3: low polyreactivity; 4: high polyreactivity; 5: low polyreactivity; 6: high polyreactivity; 7: high polyreactivity; 8: low polyreactivity

Report polyreactivity (PSR sort gate) for every entry below.
1. QVQLVESGGGLVQAGGSLRLSCAASGSTFHLYAMGWYRQAPGKERELVAAITRGGGSTYYADSVKGRFTISRDYAKNTVYLQMNSLKPEDTAVYYCNARGPSSYRYEYWGQGTQVTVSS
2. QVQLVESAGGLVQAGGSLRLSCAASGRIFDRYTMGCYRQAPGKERELVAAITFGGGSTYYADSVKGRFTISRDNAKNTVYLQMNSLKPEDTAVYYCAKQRHGKLGHILGYNYWGQGTQVTVSS

Out:
1: high polyreactivity; 2: low polyreactivity

Report polyreactivity (PSR sort gate) for every entry below.
1. QVQLVESGGGLVQAGGSLRLSCAASGGIFHPNDMGWYRQAPGKESELVAVIDSGDITNYADSVKGRFTISRDNAKNTVYLQMNSLKPEDTAVYYCAADSYSYFTDDHGYWGQGTQVTVSS
2. QDQLVESAAGLVQAGGSLRLSCAASGRTLYTNALGWYIQAPGKERELVAAISSDSSTKYADSVKGRFTISRDNAKNTVYLQMNSLKPEDTAVYYCARRGAFYYLYGHQYALYDYWGQGTQVTVSS
3. QVQLVESGGGLVQAGGSLRLSCAASGSTLGWYVMGWYRQAPGKERELVAAISKSGGRTYYADSVKGRFTISRDNAKNTVYLQMNSLKPEDTAVYYCAAYPPSDFYYEHDYWGQGTQVSVSS
4. QVQLVESGGGLVQAGGSLRLSCAASGSTFRPYTMGWYRQAPGKERELVAAINRRGSSTYYADSVKGRFTISRDNAKNTVYLQMNSLKPEDTAVYYCNAVPGSRYGTYDYWGQGTQVTVSS
5. QVQLVESGGGLVQAGGSLRLSCAASGRTFVSNDMGWYRQAPGKERELVATISSGASTYYADSVKGRFTISRDNAKITVYLQMNSLKPEDTAVYYCAAEVLVFGGGYDYWGQGTQVTVSS
6. QVHLVESGGGLVQAGGSLRLSCAASGSIFGSNAMGWYRQAPGKERELVAAISRRGGNTYYADSVKGRFTISRDNAKNTVYLQLNSLKPEDTAVYYCAAPKDPDRVQYDYWGQGTQVTVSS

Out:
["high polyreactivity", "low polyreactivity", "high polyreactivity", "high polyreactivity", "low polyreactivity", "low polyreactivity"]
